Sourced from patent US20200024330A1

# Assayed system: HIV-1 Env of isolate 92TH021 (HIV-1)
# Experiment summary: cell-based or functional assay
Measured parameter: IC50 (µg/mL), pseudovirus neutralization
Answer in µg/mL, number only, no unit symbol.

PGT-125 (antibody, V domains shown) VH: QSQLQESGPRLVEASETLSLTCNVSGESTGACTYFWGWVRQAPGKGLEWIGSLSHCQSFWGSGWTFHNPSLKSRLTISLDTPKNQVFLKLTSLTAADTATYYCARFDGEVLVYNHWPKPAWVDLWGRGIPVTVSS VL: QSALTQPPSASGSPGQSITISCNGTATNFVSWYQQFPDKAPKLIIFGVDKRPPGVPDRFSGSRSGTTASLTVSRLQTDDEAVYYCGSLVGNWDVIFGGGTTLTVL has a reported IC50 (µg/mL), pseudovirus neutralization of 0.006
